biological target: HLA-A*02:01; assay: IEDB peptide-MHC binding, purified MHC/competitive/radioactivity; bounds were set here for any values at or beyond the usual limits of such assays; details: source organism: Trypanosoma cruzi
Measured property: IC50 (nM)
# unit: nM | format: bare number

Q: In one line, give reported IC50 of the entry SLSHYFTLV .
Result: 1.6

* * *

molecular target: HLA-B*53:01; assay: IEDB peptide-MHC binding, purified MHC/competitive/radioactivity; filed as Kd, often an IC50 or EC50 that approximates it; bounds were set here for any values at or beyond the usual limits of such assays; conditions: source organism: Hepacivirus hominis
Measured property: Kd

Q: In one line, give reported Kd of the entry RPALVFDIT .
Result: ≥ 50.2 µM

* * *

Reported Kd is given for each of the following sequences.
molecular target: HLA-A*02:01; test: IEDB peptide-MHC binding, purified MHC/competitive/radioactivity; filed as Kd, often an IC50 or EC50 that approximates it; bounds were set here for any values at or beyond the usual limits of such assays; conditions: source organism: Dengue virus 1 Singapore/S275/1990
# unit: nM | format: bare number

See these solved cases before continuing.
TLMLLALIAV 7.52
FSLGLLCISI 7.58
VLSIVSLFPL 8.47
QLWATLLSL 1.16
SVLLWMASV 6.33

Now let's try a different one.
Q: In one line, give reported Kd of the entry WMTTEDMLSV .
Result: 18.8

* * *

Reported pKd is given for each of the following sequences.
biological target: HLA-B*15:42; test: IEDB peptide-MHC binding, purified MHC/competitive/fluorescence; filed as Kd, often an IC50 or EC50 that approximates it; bounds were set here for any values at or beyond the usual limits of such assays; conditions: source organism: Vaccinia virus WR
pKd: −log10 of the molar value.

Q: In one line, give reported pKd of the entry MPAYIRNTL .
Result: ≤ 5.30

Q: In one line, give reported pKd of the entry LMYPTTLLK .
Result: ≤ 5.30

* * *

molecular target: HLA-B*48:01; assay: IEDB peptide-MHC binding, purified MHC/direct/fluorescence; filed as Kd, often an IC50 or EC50 that approximates it; bounds were set here for any values at or beyond the usual limits of such assays; settings: source organism: Camelpox virus CMS
Measured property: pKd
The meaning of pKd here: minus log10 of the concentration in molar units.

Q: In one line, give reported pKd of the entry MPAYIRNTL .
Result: 5.82

* * *

molecular target: HLA-A*03:01; assay: IEDB peptide-MHC binding, purified MHC/competitive/fluorescence; filed as Kd, often an IC50 or EC50 that approximates it; bounds were set here for any values at or beyond the usual limits of such assays; details: source organism: Vibrio antiquarius
Measured property: Kd

Q: In one line, give reported Kd of the entry ITHPKYRKK .
Result: ≥ 20 µM

* * *

target: HLA-B*15:17; assay: IEDB peptide-MHC binding, purified MHC/direct/fluorescence; filed as Kd, often an IC50 or EC50 that approximates it; bounds were set here for any values at or beyond the usual limits of such assays; details: source organism: Camelpox virus M-96
Measured property: Kd (nM)
# unit: nM | format: bare number

Q: In one line, give reported Kd of the entry LLRDKDGVY .
Result: 393

* * *

biological target: HLA-A*01:01; experiment: IEDB peptide-MHC binding, purified MHC/competitive/radioactivity; filed as Kd, often an IC50 or EC50 that approximates it; bounds were set here for any values at or beyond the usual limits of such assays; details: source organism: Dengue virus 3 Sri Lanka/1266/2000
Measured property: Kd (nM)
# unit: nM | format: bare number

Q: In one line, give reported Kd of the entry KTDWLPMTV .
Result: 56.5

The origin of these recorded values is the Immune Epitope Database (IEDB).
